target: Amine oxidase [flavin-containing] B (Homo sapiens); test: Inhibition of recombinant human MAO-B using p-tyramine as substrate preincubated for 15 mins followed by substrate addition measured over 15 mins by Amplex red reagent-based fluorimetric method
Sequence (P27338 whole entry): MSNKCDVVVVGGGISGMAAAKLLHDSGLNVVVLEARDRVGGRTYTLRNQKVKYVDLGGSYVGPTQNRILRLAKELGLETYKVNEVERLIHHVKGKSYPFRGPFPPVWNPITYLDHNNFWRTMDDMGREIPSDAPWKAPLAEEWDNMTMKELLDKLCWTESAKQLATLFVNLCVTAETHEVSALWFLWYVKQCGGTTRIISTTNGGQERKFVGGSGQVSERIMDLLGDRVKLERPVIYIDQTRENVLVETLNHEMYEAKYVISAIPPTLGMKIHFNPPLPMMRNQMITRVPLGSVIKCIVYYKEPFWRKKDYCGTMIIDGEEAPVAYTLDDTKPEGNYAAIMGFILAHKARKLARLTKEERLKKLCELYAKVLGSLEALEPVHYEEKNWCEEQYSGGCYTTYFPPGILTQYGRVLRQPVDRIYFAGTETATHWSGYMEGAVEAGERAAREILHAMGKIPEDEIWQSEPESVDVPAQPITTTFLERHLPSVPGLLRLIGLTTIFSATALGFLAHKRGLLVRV
pIC50: −log10 of the molar value.
QUANTITY MEASURED: pIC50

Worked set:
MOLECULE	SUBJECT OF TEST	READOUT NUMBER
C#CCNC1CCc2c(OCc3ccc(F)c(F)c3)cccc21 (stereo not drawn)	Amine oxidase [flavin-containing] B (Homo sapiens)	5.85
C#CCNC1CCc2c(OCCc3ccc(Cl)cc3)cccc21 (stereo not drawn)	Amine oxidase [flavin-containing] B (Homo sapiens)	5.60
C#CCNC1CCc2c(OCCOc3cccc(NC(C)=O)c3)cccc21 (stereo not drawn)	Amine oxidase [flavin-containing] B (Homo sapiens)	5.26
C#CCNC1CCc2c(OCCc3cccc(NC(=O)c4ccc(Cl)cc4)c3)cccc21 (stereo not drawn)	Amine oxidase [flavin-containing] B (Homo sapiens)	7.70
C#CCNC1CCc2c(OCCOc3cccc4ccccc34)cccc21 (stereo not drawn)	Amine oxidase [flavin-containing] B (Homo sapiens)	5.47

A: C#CCNC1CCc2c(OCCCOc3ccccc3)cccc21 (stereo not drawn)
B: C#CCNC1CCc2c(OCc3cccc(F)c3)cccc21 (stereo not drawn)
Query: Of the two listed items, which has the higher pIC50? First: A Second: B Indicate which entry you chose by stating its label.
Result: B
(B: 6.55, A: 4.99)
